molecular target: SB10 transposase (synthetic Sleeping Beauty transposon); assay: fluorescence anisotropy; Full-length MST: 50 mM Tris pH 7.5, 5 mM MgCl2, 300 mM NaCl, 2% glycerol, 50 mM Arg-Glu, 1 mM TCEP, 0.1% Triton X-100, 0.1 mg/ml BSA, 30 nM Cy5-DNA, room temp; settings: protein: recombinant; tags: Ni-NTA purified; label: 5' Cy5 on forward strand (MST)
binders and their reported Kd
Numbers only here, please. The scale is nM.

Solved entries (count: 2):
| Binder | Unit name | Kd |
| --- | --- | --- |
| Lo (dsDNA) DNA 1: CAGTTGAAGTCGGAAGTTTACATACACTTAAG DNA 2: CTTAAGTGTATGTAAACTTCCGACTTCAACTG | nM | 23.9 |
| Li (dsDNA) DNA 1: TCCAGTGGGTCAGAAGTTTACATACACTAAGT DNA 2: ACTTAGTGTATGTAAACTTCTGACCCACTGGA | nM | 19.3 |

# evaluate next
Asked: Specify measured Kd for DR-core (dsDNA) DNA 1: TCGGAAGTTTACATACAC DNA 2: GTGTATGTAAACTTCCGA .
Given back: 37
